target: Carbonic anhydrase 1 (Homo sapiens); experiment: Inhibition of human carbonic anhydrase-1 cytosolic isoform after 15 mins by Stopped-flow CO2 hydrase assay
Sequence (P00915 whole entry, canonical isoform): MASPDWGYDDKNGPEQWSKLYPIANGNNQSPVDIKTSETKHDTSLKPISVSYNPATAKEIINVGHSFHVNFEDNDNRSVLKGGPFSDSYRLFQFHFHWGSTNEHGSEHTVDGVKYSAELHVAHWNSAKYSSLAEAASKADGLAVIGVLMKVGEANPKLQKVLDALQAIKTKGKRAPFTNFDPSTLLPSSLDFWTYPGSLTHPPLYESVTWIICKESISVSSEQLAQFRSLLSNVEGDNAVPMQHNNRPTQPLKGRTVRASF
PROPERTY_MEASURED: pKi
The meaning of pKi here: minus log10 of the concentration in molar units.

Let me check: NS(=O)(=O)c1nnc(NC(=O)CC23CC4CC(CC(C4)C2)C3)s1 , system Carbonic anhydrase 1 (Homo sapiens), measured pKi is 6.47

Let me check: NS(=O)(=O)c1nnc(NC(=O)C23CC4CC(CC(C4)C2)C3)s1 , system Carbonic anhydrase 1 (Homo sapiens), measured pKi is 6.07

Data credit: ChEMBL document CHEMBL2346533
